Where do the numbers come from? From patent US20230125550A1.

Biological target: T1, AFP p26 (human, UniProt P02771 381-609)
T1 construct: The construct used is not described
T1 sequence: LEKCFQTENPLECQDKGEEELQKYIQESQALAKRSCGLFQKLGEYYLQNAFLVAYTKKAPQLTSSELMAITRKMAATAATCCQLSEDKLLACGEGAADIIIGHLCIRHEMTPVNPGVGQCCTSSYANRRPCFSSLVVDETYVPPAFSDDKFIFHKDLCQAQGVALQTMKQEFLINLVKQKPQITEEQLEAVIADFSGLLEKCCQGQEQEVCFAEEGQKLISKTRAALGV
Assay: phage ELISA, A450 target/A450 IgG1-Fc
Measured endpoint: ELISA_avg (ratio)
Expressed in ratio, but write only the number.

Binder: SEQ ID NO 780 (designed binder) MGSWYEFQQRLEAIDTRLWALGGSEAELAAFEKEIAAFESELQAYKGKGNPEVEELREHAAHIRHWLQAYRHN
ELISA_avg, ratio: 27.3
//
Binder: SEQ ID NO 820 (designed binder) MGSWLYFKYNLAVIKHWLEALGGSEAELAIFEMSIADFEYELQWYKGKGNPEVEALRKEAAAIRDELQAYRHN
ELISA_avg, ratio: 13.3
//
Binder: SEQ ID NO 774 (designed binder) MGSWYEFVVRLFAIDERLWALGGSEAELAAFEKEIAAFESELQAYKGKGNPEVESLREHAAHIRSWLQAYRHN
ELISA_avg, ratio: 18.2
//
Binder: SEQ ID NO 850 (designed binder) MGSWIIFKTDLARIKNYLEALGGSEAELATFERDIAWFEFMLQIYKGKGNPEVEALRKEAAAIRDELQAYRHN
ELISA_avg, ratio: 16.7

Now turn to the next binder.
q: State its ELISA_avg for this binder: SEQ ID NO 769 (designed binder) MGSWEEFYYRLEAIDARLFALGGSEAELAAFEKEIAAFESELQAYKGKGNPEVEELRVHAAHIRDWLQAYRHN
a: 30.3
